Source listed as the supplement of paper PMC10307832.

relative viability by entry:
- Test system: LOU-NH91
- assay comment: relative viability (nuclei count vs DMSO), 5 days (fraction); higher = more cells survive
- condition parameters: first compound 0.006325 µM
Answer with a number only.

Sample answers from the record:
molecule	metric name	experimental value
CCNC(=O)c1noc(-c2cc(C(C)C)c(O)cc2O)c1-c1ccc(CN2CCOCC2)cc1 [Luminespib] + COc1cc2c(Oc3ccc(NC(=O)C4(C(=O)Nc5ccc(F)cc5)CC4)cc3F)ccnc2cc1OCCCN1CCOCC1 [Foretinib] (partner 0.25 µM)	relative viability	0.95
CCNC(=O)c1noc(-c2cc(C(C)C)c(O)cc2O)c1-c1ccc(CN2CCOCC2)cc1 [Luminespib] + CC(=O)c1c(C)c2cnc(Nc3ccc(N4CCNCC4)cn3)nc2n(C2CCCC2)c1=O [Palbociclib] (partner 0.5 µM)	relative viability	0.533
CCNC(=O)c1noc(-c2cc(C(C)C)c(O)cc2O)c1-c1ccc(CN2CCOCC2)cc1 [Luminespib] + N=C(N)NC(=N)NCCc1ccccc1 [Phenformin] (partner 250 µM)	relative viability	0.716

Item: CCNC(=O)c1noc(-c2cc(C(C)C)c(O)cc2O)c1-c1ccc(CN2CCOCC2)cc1 [Luminespib] + C[C@@H](Oc1cc(-c2cnn(C3CCNCC3)c2)cnc1N)c1c(Cl)ccc(F)c1Cl [Crizotinib] (partner 1 µM) Test system: LOU-NH91 Read-out: relative viability Value: ? 0.726
